Target: Phenylethanolamine N-methyltransferase (Bos taurus, UniProt P10938)
Sequence (P10938 whole entry): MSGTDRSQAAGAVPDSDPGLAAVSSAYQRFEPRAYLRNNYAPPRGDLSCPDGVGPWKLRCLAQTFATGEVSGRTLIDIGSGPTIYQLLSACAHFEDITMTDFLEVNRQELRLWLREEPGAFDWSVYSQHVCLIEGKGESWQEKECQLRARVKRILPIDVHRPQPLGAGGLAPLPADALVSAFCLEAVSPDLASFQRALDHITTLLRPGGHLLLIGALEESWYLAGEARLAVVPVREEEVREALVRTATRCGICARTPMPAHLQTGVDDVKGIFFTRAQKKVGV
Record form. Attribute: Ki. Fill in for each entry.
Numbers only here, please. The scale is µM.

Request body: readout Ki, system Phenylethanolamine N-methyltransferase (Bos taurus, UniProt P10938), query N[C@@H]1CCc2ccccc2C1 . Return the value. 10

Request body: readout Ki, system Phenylethanolamine N-methyltransferase (Bos taurus, UniProt P10938), query N[C@@H]1CCc2ccccc2[C@@H]1O . Return the value. 293

Request body: readout Ki, system Phenylethanolamine N-methyltransferase (Bos taurus, UniProt P10938), query N[C@H]1CCc2ccccc2[C@@H]1O . Return the value. 4.6

Request body: readout Ki, system Phenylethanolamine N-methyltransferase (Bos taurus, UniProt P10938), query C[C@H](N)[C@@H](O)c1ccccc1 . Return the value. 3700

Request body: readout Ki, system Phenylethanolamine N-methyltransferase (Bos taurus, UniProt P10938), query C[C@@H](N)[C@@H](O)c1ccccc1 . Return the value. 2980

Request body: readout Ki, system Phenylethanolamine N-methyltransferase (Bos taurus, UniProt P10938), query C[C@@H](N)[C@H](O)c1ccccc1 . Return the value. 2440

Request body: readout Ki, system Phenylethanolamine N-methyltransferase (Bos taurus, UniProt P10938), query N[C@H]1CCc2ccccc2C1 . Return the value. 4.1

====

Record form. Attribute: log10 Vmax. Fill in for each entry.
experiment: Vmax of compound was determined; assay type: ADME
Field: value | Transform: log10 | Quantity: Vmax | Unit: nM/mg/min

Suppose we examine the molecule N[C@@H]1CCc2ccccc2C1O (single isomer, unassigned) ; what log10 Vmax value has been reported? -0.92

Suppose we examine the molecule C[C@H](N)[C@H](O)c1ccccc1 ; what log10 Vmax value has been reported? -0.66

Suppose we examine the molecule NC[C@@H](O)c1ccccc1 ; what log10 Vmax value has been reported? -0.04

Suppose we examine the molecule N[C@@H]1CCc2ccccc2[C@@H]1O (racemic) ; what log10 Vmax value has been reported? -0.82

Suppose we examine the molecule NC[C@H](O)c1ccccc1 ; what log10 Vmax value has been reported? 0.69

Suppose we examine the molecule N[C@H]1CCc2ccccc2[C@H]1O ; what log10 Vmax value has been reported? -0.80

====

experiment: Ratio expressed as 100x Vmax/Km; assay type: ADME
Assay Metric: Ratio
Write no unit; give the number alone.

Suppose we examine the compound N[C@@H]1CCc2ccccc2C1O (single isomer, unassigned) ; what Ratio value has been reported? 0.062

Suppose we examine the compound NC[C@H](O)c1ccccc1 ; what Ratio value has been reported? 1.7

Suppose we examine the compound N[C@H]1CCc2ccccc2[C@H]1O ; what Ratio value has been reported? 3.6

Suppose we examine the compound C[C@H](N)[C@H](O)c1ccccc1 ; what Ratio value has been reported? 0.017

Suppose we examine the compound NC[C@@H](O)c1ccccc1 ; what Ratio value has been reported? 0.96

Origin of measurements: ChEMBL document CHEMBL1123984
